# Target entity: DLL3 endogenously expressed on NCI-H82 cells (UniProt Q9NYJ7)
# Sequence (Q9NYJ7 27-618): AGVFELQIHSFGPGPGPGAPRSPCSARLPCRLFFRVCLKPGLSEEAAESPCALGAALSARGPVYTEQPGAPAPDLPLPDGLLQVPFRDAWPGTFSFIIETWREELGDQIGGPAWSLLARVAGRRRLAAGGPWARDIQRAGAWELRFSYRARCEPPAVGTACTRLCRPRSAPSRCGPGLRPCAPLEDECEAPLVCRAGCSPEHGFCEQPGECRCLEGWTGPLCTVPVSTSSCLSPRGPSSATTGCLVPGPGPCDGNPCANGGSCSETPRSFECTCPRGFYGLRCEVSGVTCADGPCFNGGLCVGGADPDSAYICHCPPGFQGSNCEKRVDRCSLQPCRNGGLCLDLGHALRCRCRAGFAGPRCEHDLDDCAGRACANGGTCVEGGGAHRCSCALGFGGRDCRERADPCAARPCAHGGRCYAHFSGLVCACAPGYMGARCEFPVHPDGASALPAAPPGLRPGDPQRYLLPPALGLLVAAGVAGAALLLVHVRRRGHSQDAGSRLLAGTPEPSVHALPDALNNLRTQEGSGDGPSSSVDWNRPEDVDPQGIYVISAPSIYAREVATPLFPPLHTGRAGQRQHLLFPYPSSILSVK
# Assay comment: FACS on NCI-H82 cells; antibody 0.16 nM
Assay metric: MFI
Quick one: just the number, no unit, thanks!

A selection of reference data follows.
Binder: mab006 scFv-hFc (Fc fusion, part only; not given: linker and human IgG1 Fc, not shown: a dimerising Fc or GST) chain, part: DVQITQSPSYLAASPGETITINCRATKSISKYLAWYQEKPGKTNKLLIFSGSTLQSGIPSRFRGSGSGTDFTLTISSLEPEDFAMYYCQQHHEYPYTFGGGTKLEIKQVQLQQPGAELVRPGTSVKLSCKASGYTFTSYWMHWVRQRPGQGLEWIGVIDPSDSLANYNQEFKGKATLTVDTSSSTAYMQLSSLTSEDSAVYYCARDSTVVAPMDYWGQGTSVTVSS
MFI: 416

Binder: BI3 (antibody, human IgG1, kappa, V domains shown) VH: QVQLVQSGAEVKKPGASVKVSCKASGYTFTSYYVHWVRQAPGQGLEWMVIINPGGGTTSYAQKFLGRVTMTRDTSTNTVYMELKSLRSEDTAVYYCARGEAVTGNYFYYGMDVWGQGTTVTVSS VL: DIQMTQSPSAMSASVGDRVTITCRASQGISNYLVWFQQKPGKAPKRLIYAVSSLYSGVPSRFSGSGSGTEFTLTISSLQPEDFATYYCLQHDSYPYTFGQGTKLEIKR
MFI: 256

Now look at this one.
Query block: Would you mind telling me what MFI value was observed for Hab015VL4VH5a-hFc (scFv, part only; not given: VL-VH linker and human IgG1 Fc, V domains shown, not shown: another chain or arm of the molecule; a dimerising Fc or GST; small tags and cut ends) VL: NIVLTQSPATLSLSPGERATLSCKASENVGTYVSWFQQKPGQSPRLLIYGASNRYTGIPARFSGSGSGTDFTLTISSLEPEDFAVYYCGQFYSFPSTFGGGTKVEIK VH: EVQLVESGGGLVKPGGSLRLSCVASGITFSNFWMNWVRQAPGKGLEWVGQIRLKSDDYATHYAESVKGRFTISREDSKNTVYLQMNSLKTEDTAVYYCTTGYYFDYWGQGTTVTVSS ?
Result block: 476
